test system: OVCAR-8 ovarian; experiment: NCI tumour cell line growth inhibition, 48 h
The entries below come with measured GI50 values attached.

Example molecules with recorded GI50:
> print(dat)
                              smiles.record        tested.on  value.reported
1  COc1cc2c3c(n(CCCN=[N+]=[N-])c(=O)c2cc1OC)-c1ccc(F)cc1C3=O  OVCAR-8 ovarian         21.2 µM
2  Cc1cc(-c2nc3sc(C)cn3c2/C=N/N=C(N)N)c(C)s1  OVCAR-8 ovarian         17.6 µM

Recorded result, `O=Cc1ccc(-c2ccc(-c3nc4ccccc4s3)cc2)o1` , GI50: 70.7 µM
